The measured values listed here are drawn from PubChem BioAssay AID1628.

assay: decrease of insulin promoter-GFP reporter – imaging, high-content screening, mouse beta cells (AID 1628); conditions: MIN6 insulin promoter GFP reporter, at 5 µM
In all, about 190,000 compounds went through this assay and about 930 (0.49%) were called active.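 The calls were made as follows: active = z-score of insulin promoter reporter brightness in nuclei below -3 at 5 µM, with at least 500 cells counted; inconclusive = wells with under 500 cells, flagged as toxic or sparse; inactive = the rest.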 The list shows a part of the results. Entries with a potency or affinity are not part of this list.
Thanks in advance; please answer with one of these: active, inactive

>>> print(df.to_string())
                                   compound  category_label
0  C/C(N)=C(/C#N)C(=O)CSc1nnnn1-c1ccc(C)cc1C          active

For this compound, state the assay outcome: CCCN1CC=C2C(C#N)=C(N)C(C#N)(C#N)C(c3cccc(OC)c3OC)C2C1 (stereo not given)
inactive

In this assay, the call recorded for `COc1ccc(NC(=O)CSc2ncccc2C(=O)OC(C)C)cc1OC` was what?
active

Dear colleague, could you share the recorded outcome for `Cc1ccccc1NC(=O)c1cc(C(=O)c2cc(Cl)ccc2O)cn(-c2ccccc2C)c1=O` when you have a moment?
active

What classification did CCOC(=O)CC1C(=O)NCCN1c1nc2ccc(C)cn2c(=O)c1/C=C1\SC(=S)N(CC(C)C)C1=O (stereo not given) end up with in this test?
inactive

Hey, what did the test say about `O=C(O)CCCC(=O)Nc1c(F)c(F)c(F)c(F)c1F` ?
inactive

Would you mind telling me which call this test gave COc1cc(=O)n(C)c2c(OCC3OC(C)(C)OC3(C)C)cccc12 (stereo not given) ?
inactive

// return assay outcome for CC(C)(O)C(O)COc1c2ccoc2cc2oc(=O)ccc12 (stereo not given)
inactive

I'd appreciate the recorded outcome for `Nc1nonc1C(=O)NCCNCc1ccccc1OCc1ccccc1F` from this test.
active

For `Fc1ccc(-c2nnc3ccc(N4CCc5ccccc5C4)nn23)cc1` , which call appears in the assay record?
active

* * *

assay: decrease of insulin promoter-GFP reporter – imaging, high-content screening, mouse beta cells (AID 1628); settings: MIN6 insulin promoter GFP reporter, at 5 µM, hits give low values
The campaign covered roughly 190,000 compounds. About 930 (0.49%) were called active. The list shows a part of the results. Measured potencies and affinities stand elsewhere.
The class of a record is decided solely by its measured z-score; consult LOW = under -3, MID = from -3 up to 5, HIGH = 5 and over

>>> df
                                   compound  category_label
0  COc1ccc(-c2nn(-c3ccccc3)cc2/C=C(\C#N)S(=O)(=O)c2ccccc2)cc1OC             LOW
1  CCN(CC)c1ccc2cc(C(=O)Nc3ccccn3)c(=O)oc2c1            HIGH
2  CCCN1C(=O)/C(=C/c2c(N3CCNC(=O)C3CC(=O)OC)nc3c(C)cccn3c2=O)SC1=S (stereo unspecified)            HIGH

For this compound, which bin applies? `COc1ccc(N=c2oc3cc(O)ccc3cc2C(=O)Nc2ccccn2)cc1OC`
LOW

Would you mind sorting `Oc1ccc(/C=N/Nc2nc(-c3ccccc3F)nc3ccccc23)c(O)c1` into the appropriate category?
MID

Note: place this compound into its band. Item: `CCSc1nc2c(c(=O)[nH]c(=O)n2C)n1C`
MID

* * *

assay: decrease of insulin promoter-GFP reporter – imaging, high-content screening, mouse beta cells (AID 1628); details: MIN6 insulin promoter GFP reporter, at 5 µM, hits give low values
The campaign covered roughly 190,000 compounds. About 930 (0.49%) were called active. The list shows a part of the results. Potency and affinity values are given separately.
readout-label: z-score
Give only the figure.

Worked cases, z-score given:
                                   molecule  readout_label  measured
0   CCOc1ccccc1N1CC(O)=C(c2nc3ccccc3s2)C1=N        z-score     -3.91
1  Cc1nn(-c2c(Cl)cc(Cl)cc2Cl)c(=O)c2ccccc12        z-score      3.38
2  CCC(C)N1C(=O)/C(=C/c2c(NCCCOC(C)C)nc3c(C)cccn3c2=O)SC1=S (stereo not given)        z-score      13.1

Now consider a different molecule.
Using the record for OC(CNCC1CCCO1)COc1ccc(OCC(O)CNCC2CCCO2)cc1 (stereo not given) , report its z-score.
1.04

* * *

assay: decrease of insulin promoter-GFP reporter – imaging, high-content screening, mouse beta cells (AID 1628); conditions: MIN6 insulin promoter GFP reporter, at 5 µM
Out of some 190,000 compounds screened, about 930 (0.49%) were called active.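 How the source made its calls: active means z-score of insulin promoter reporter brightness in nuclei below -3 at 5 µM, with at least 500 cells counted; inconclusive means wells with under 500 cells, flagged as toxic or sparse; inactive means the rest.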 This is one part of the list. Results with a measured potency or affinity are listed apart.
Pick one and only one: 1.0 (active), 0.0 (inactive)

                                test_smiles  category_label
0  Cc1ccc2nc(/C(C#N)=C\c3ccc(N4CCOCC4)o3)[nH]c2c1             0.0
1  CN(C)c1ccc(/C=C(\C#N)C(=O)Nc2nc3c(s2)CCN(Cc2ccccc2)C3)cc1             0.0
2         COc1ccc(CCNC(=S)Nc2ccc(C)cc2C)cc1             1.0
3  COCCN(CCOC)Cc1c(C)[nH]c2c(C)c(C)ccc2c1=O             0.0
4     COc1cc(/C=C/C(=O)c2ccccc2O)cc(OC)c1OC             0.0

Given `Cc1cccn2c(=O)c(/C=C3\SC(=S)NC3=O)c(NCCCN3CCOCC3)nc12` , state the outcome it received in this test.
0.0

* * *

test: decrease of insulin promoter-GFP reporter – imaging, high-content screening, mouse beta cells (AID 1628); details: MIN6 insulin promoter GFP reporter, at 5 µM
Among all 190,000 compounds or so, about 930 (0.49%) were called active.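 How the source made its calls: active means z-score of insulin promoter reporter brightness in nuclei below -3 at 5 µM, with at least 500 cells counted; inconclusive means wells with under 500 cells, flagged as toxic or sparse; inactive means the rest.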 The list shows a part of the results. Entries with a potency or affinity are not part of this list.
I would appreciate it if you answered using one of these outcomes: active, inactive

Tell me the assay call for `Cc1nn(-c2ccccc2)c(C)c1NC(=O)CCl` please.
inactive

Which outcome was assigned to N#CC(C#N)=C1C=C2C=C(N3CCOCC3)CCC2CC1 (stereo not given) in this test?
inactive

# lookup: test call for CCCOc1ccc(-c2nn(-c3ccccc3)cc2/C=C2\SC(=S)N(C3CCS(=O)(=O)C3)C2=O)cc1 (stereo not given)
inactive

Assay outcome for CCOC(=O)C1C(=O)C=C(/C=C/c2ccc(N(C)C)cc2)CC1c1ccccc1 (stereo not given) : what was it?
inactive

// outcome(item) with item = `N#C/C(=C\c1ccc(N2CCCCC2)o1)C(=O)Nc1cccc(Br)c1`
inactive

Per the records of this test, what outcome belongs to `COc1cccc(-c2cc(C(=O)Nc3ccc4c(c3)OCCO4)c3ccccc3n2)c1` ?
active

# lookup: test call for `COC(CNC(=O)CSCc1nc(-c2ccc(SC)cc2)oc1C)OC`
inactive

* * *

# key: entry, value: z-score
test: decrease of insulin promoter-GFP reporter – imaging, high-content screening, mouse beta cells (AID 1628); conditions: MIN6 insulin promoter GFP reporter, at 5 µM, hits give low values
In all, about 190,000 compounds went through this assay and about 930 (0.49%) were called active. Some of the results follow. Measured potencies and affinities stand elsewhere.
// return a plain number; no unit text

# query: z-score of entry `O=C(Nc1ccccc1)Nc1ccc(-n2ccc(C(F)(F)F)n2)cc1`
-3.4

May I ask what z-score has been recorded for `O=C1CCCC(O)=C1C=NCCc1ccccc1` ?
3.02

Fill in: z-score of O=C(NCc1ccc(F)cc1)C1CCCN(S(=O)(=O)c2cccnc2)C1 (stereo not given) is ___
3.46

Field request: z-score | item: `C=CCN1C(=O)/C(=C/C=C2/N(CC)c3ccc(S(=O)(=O)N(C)C)cc3N2CC)SC1=S`
17.1

If you can, please state the reported z-score value of C/C(=N\NC(=O)C1CCCN(S(=O)(=O)c2ccccc2)C1)c1ccccn1 (stereo not given) .
-3.38

* * *

assay: decrease of insulin promoter-GFP reporter – imaging, high-content screening, mouse beta cells (AID 1628); settings: MIN6 insulin promoter GFP reporter, at 5 µM, hits give low values
In all, about 190,000 compounds went through this assay and about 930 (0.49%) were called active. This is one part of the list. Potency and affinity values are given separately.
The entries below are paired with their reported z-score.
Simply state the number, no unit and no words.

Solved cases below.
>>> print(df.to_string())
                                   compound  measured
0  O=C(N/N=C/c1cn(-c2ccccc2)nc1-c1ccccc1)c1ccco1     -4.01
1                 Cc1cccc(OCCCCCn2ccnc2)c1C     -4.58
2  O=C1c2cccc3c(N4CCCCC4)ccc(c23)C(=O)N1c1ccc(O)cc1       6.1
3  Nc1c(C(=O)N/N=C/c2ccccc2Cl)oc2nc(-c3ccccc3)cc(-c3ccco3)c12      6.17
4                     CCCCSc1cc(C)nc2ncnn12       0.8
5  CCN(CC)c1ccc(/C=C(/C#N)c2nc3ccc(C)cc3[nH]2)c(OC(C)C)c1      10.8
6  CCCCCOC(=O)Cn1c(N2CCCCCC2)nc2c1c(=O)[nH]c(=O)n2C     -0.48
7  CCC(=O)OCC(=O)c1c(N)n(Cc2ccccc2)c(=O)n(C)c1=O      3.29
8  CCN(CC)c1ccc2cc(/C(N)=N/NC(=O)c3cccs3)c(=O)oc2c1      7.11
9           COc1ccc2nc(SCC(C)=O)c(C#N)cc2c1      8.23

State the recorded z-score for this entry: `Nc1c(C(=O)O)sc2nc(-c3ccccc3)cc(-c3ccccc3)c12`
4.64

Request the reported z-score associated with `CCOc1ccccc1N=C1NC(=O)CS1`
-6.97

Requested field: z-score. Item: `CCCS(=O)(=O)N1CCC(C(=O)NCCC(C)C)CC1`
3.11

Fill blank: measured z-score of the compound `CCOc1cc2[nH]c(=O)n(CCC(=O)NCCc3ccc(OC)c(OC)c3)c(=O)c2cc1OCC` is ____.
1.44

I have this compound here, `O=C(N/N=C\c1cn(-c2ccccc2)nc1-c1ccccc1)c1ccc(Br)o1` , and I need its recorded z-score.
3.24

Param item = `CCOc1ccc(OCCCCn2ccnc2)cc1` ; retrieve measured z-score.
3.52

Can you share its z-score? I mean this compound: `Cc1cc(Cl)cc(C)c1OCCCCn1ccnc1`
-4.53

Endpoint output: z-score of `CCN(CC)c1ccc(/C=C(/C#N)C(=O)NC(C)C)o1` . Value?
6.43

Can you look up the measured z-score of `CCn1c(NCCc2ccc(OC)c(OC)c2)nc2c1c(=O)n(C)c(=O)n2C` for me?
-5.44

Fill in: z-score of `Cc1cc2nc3c(=O)n(C4CCCCC4)c(=O)[nH]c3nc2cc1N` is ___
7.94
